- Tested on: P-gp
- experiment_description: Permeability across Caco-2 monolayers
- Assay type: in vitro ADME
- experimental_setup: human, Caco-2; 10 μM; n = 3, ±S.D.
attribute_measured: Papp B→A at 10 μM (×10⁻⁶ cm/s)
Respond numerically; units are ×10⁻⁶ cm/s and should not be typed.

// query State recorded Papp B→A at 10 μM with P-gp, entry O=C(c1cc(Cc2n[nH]c(=O)c3ccccc23)ccc1F)N1CCN(C(=O)C2CC2)CC1 , no comment.
// result 23.7

###

- experiment_description: Solubility in water and pH buffered solutions
- Type: physicochemical
- experimental_setup: thermodynamic from solid; Water; 24 hr; pH 6.0
attribute_measured: solubility at 24 hr (µg/mL)
Respond numerically; units are µg/mL and should not be typed.

// query Tell me measured solubility at 24 hr for O=C(c1cc(Cc2n[nH]c(=O)c3ccccc23)ccc1F)N1CCN(C(=O)C2CC2)CC1 [Compound 1 (Form A)] please.
// result 109

###

- experiment_description: Solubility in real and simulated gastrointestinal media
- Assay type: physicochemical
- experimental_setup: human, Human Gastric Fluid (HGF), plasma or biological fluid, thermodynamic from solid; read-out: Equilibrium solubility, 24 hr
attribute_measured: solubility thermodynamic at 24 hr (µg/mL)
Respond numerically; units are µg/mL and should not be typed.

// query Tell me measured solubility thermodynamic at 24 hr for O=C(c1cc(Cc2n[nH]c(=O)c3ccccc23)ccc1F)N1CCN(C(=O)C2CC2)CC1 [Compound 1 (Form A)] please.
// result 150

###

- experiment_description: Solubility in real and simulated gastrointestinal media
- Type: physicochemical
- experimental_setup: Simulated Gastric Fluid (SGF), simulated gastric fluid, thermodynamic from solid; read-out: Equilibrium solubility, 24 hr
attribute_measured: solubility thermodynamic at 24 hr (µg/mL)
Respond numerically; units are µg/mL and should not be typed.

// query Tell me measured solubility thermodynamic at 24 hr for O=C(c1cc(Cc2n[nH]c(=O)c3ccccc23)ccc1F)N1CCN(C(=O)C2CC2)CC1 [Compound 1 (Form A)] please.
// result 120

###

- experiment_description: Solubility in real and simulated gastrointestinal media
- Type: physicochemical
- experimental_setup: human, real and simulated gastrointestinal media, fassgf or other biorelevant, thermodynamic from solid
attribute_measured: solubility at 24 hr

// query Tell me measured solubility at 24 hr for O=C(c1cc(Cc2n[nH]c(=O)c3ccccc23)ccc1F)N1CCN(C(=O)C2CC2)CC1 [Compound 1] please.
// result 120 to 200 µg/mL

###

- experiment_description: Solubility in real and simulated gastrointestinal media
- Type: physicochemical
- experimental_setup: human, Human Intestinal Fluid (HIF), plasma or biological fluid, thermodynamic from solid; read-out: Equilibrium solubility, 24 hr
attribute_measured: solubility thermodynamic at 24 hr
Please answer in the form of a number followed by its unit of measurement.

// query Tell me measured solubility thermodynamic at 24 hr for O=C(c1cc(Cc2n[nH]c(=O)c3ccccc23)ccc1F)N1CCN(C(=O)C2CC2)CC1 [Compound 1 (Form A)] please.
// result 170 µg/mL

###

- Tested on: P-gp
- experiment_description: Permeability across Caco-2 monolayers
- Type: in vitro ADME
- experimental_setup: human, Caco-2; 10 μM; n = 3, ±S.D.
attribute_measured: Papp A→B at 10 μM (×10⁻⁶ cm/s)
Respond numerically; units are ×10⁻⁶ cm/s and should not be typed.

// query Tell me measured Papp A→B at 10 μM for O=C(c1cc(Cc2n[nH]c(=O)c3ccccc23)ccc1F)N1CCN(C(=O)C2CC2)CC1 please.
// result 3.67

###

- experiment_description: Solubility in water and pH buffered solutions
- Type: physicochemical
- experimental_setup: aqueous buffer, thermodynamic from solid; pH 6.8 Phosphate Buffer; 24 hr; pH 6.9
attribute_measured: solubility at 24 hr
Please answer in the form of a number followed by its unit of measurement.

// query Tell me measured solubility at 24 hr for O=C(c1cc(Cc2n[nH]c(=O)c3ccccc23)ccc1F)N1CCN(C(=O)C2CC2)CC1 [Compound 1 (Form A)] please.
// result 96 µg/mL

###

- experiment_description: Solubility in water and pH buffered solutions
- Type: physicochemical
- experimental_setup: aqueous buffer, thermodynamic from solid; pH 9 Buffer; 1 hr; pH 8.9
attribute_measured: solubility at 1 hr (µg/mL)
Respond numerically; units are µg/mL and should not be typed.

// query Tell me measured solubility at 1 hr for O=C(c1cc(Cc2n[nH]c(=O)c3ccccc23)ccc1F)N1CCN(C(=O)C2CC2)CC1 [Compound 1 (Form A)] please.
// result 116

###

- experiment_description: Permeability across Caco-2 monolayers
- Format: in vitro ADME
- experimental_setup: human, Caco-2; 260 μM; n = 3, ±S.D.
attribute_measured: Papp B→A at 260 μM (×10⁻⁶ cm/s)
Respond numerically; units are ×10⁻⁶ cm/s and should not be typed.

// query Tell me measured Papp B→A at 260 μM for O=C(c1cc(Cc2n[nH]c(=O)c3ccccc23)ccc1F)N1CCN(C(=O)C2CC2)CC1 please.
// result 17.8

###

- experiment_description: Permeability across Caco-2 monolayers
- Assay type: in vitro ADME
- experimental_setup: human, Caco-2; 700 μM; n = 3, ±S.D.
attribute_measured: Papp A→B at 700 μM (×10⁻⁶ cm/s)
Respond numerically; units are ×10⁻⁶ cm/s and should not be typed.

// query Tell me measured Papp A→B at 700 μM for O=C(c1cc(Cc2n[nH]c(=O)c3ccccc23)ccc1F)N1CCN(C(=O)C2CC2)CC1 please.
// result 8.4

###

- experiment_description: Permeability across Caco-2 monolayers
- Format: in vitro ADME
- experimental_setup: human, Caco-2; 700 μM; n = 3, ±S.D.
attribute_measured: Papp B→A at 700 μM (×10⁻⁶ cm/s)
Respond numerically; units are ×10⁻⁶ cm/s and should not be typed.

// query Tell me measured Papp B→A at 700 μM for O=C(c1cc(Cc2n[nH]c(=O)c3ccccc23)ccc1F)N1CCN(C(=O)C2CC2)CC1 please.
// result 15.1

###

- experiment_description: Solubility in real and simulated gastrointestinal media
- Assay type: physicochemical
- experimental_setup: fed state simulated intestinal fluid, fessif, thermodynamic from solid; read-out: highest solubility
attribute_measured: solubility (µg/mL)
Respond numerically; units are µg/mL and should not be typed.

// query Tell me measured solubility for O=C(c1cc(Cc2n[nH]c(=O)c3ccccc23)ccc1F)N1CCN(C(=O)C2CC2)CC1 please.
// result 200

###

- System: P-gp
- experiment_description: Permeability across Caco-2 monolayers
- Format: in vitro ADME
- experimental_setup: human, Caco-2; 10 μM
attribute_measured: efflux ratio at 10 μM
Please give only the number in your answer, with no unit.

// query Tell me measured efflux ratio at 10 μM for O=C(c1cc(Cc2n[nH]c(=O)c3ccccc23)ccc1F)N1CCN(C(=O)C2CC2)CC1 please.
// result 6.5

###

- experiment_description: Solubility in water and pH buffered solutions
- Assay type: physicochemical
- experimental_setup: simulated gastric fluid, thermodynamic from solid; 0.1M HCl; 24 hr; pH 1.2
attribute_measured: solubility at 24 hr
Please answer in the form of a number followed by its unit of measurement.

// query Tell me measured solubility at 24 hr for O=C(c1cc(Cc2n[nH]c(=O)c3ccccc23)ccc1F)N1CCN(C(=O)C2CC2)CC1 [Compound 1 (Form A)] please.
// result 114 µg/mL
